# Run Description: Miscibility with solvents, visual evaluation at 5 wt %
# Type: physicochemical
# Parameters: key: ⊚: dissolves at room temperature; ◯: dissolves when heated for 5 minutes at 40° C.; Δ: dissolves under heating, but cooling precipitates crystals; X: does not dissolve
# Settings: complex added at 5 wt %
# Protocol: The miscibility of the rare earth complex with various media was evaluated as follows. 1) Miscibility with Solvents
Value Type: Miscibility, Acetone

O=S(=O)([N-]S(=O)(=O)C(F)(F)F)C(F)(F)F.O=S(=O)([N-]S(=O)(=O)C(F)(F)F)C(F)(F)F.O=S(=O)([N-]S(=O)(=O)C(F)(F)F)C(F)(F)F.[Eu+3] [Eu(PMS)3, reference compound]    ⊚
O=S(=O)([N-]S(=O)(=O)C(F)(F)F)C(F)(F)F.O=S(=O)([N-]S(=O)(=O)C(F)(F)F)C(F)(F)F.O=S(=O)([N-]S(=O)(=O)C(F)(F)F)C(F)(F)F.[Nd+3].c1cnc2c(c1)ccc1cccnc12.c1cnc2c(c1)ccc1cccnc12.c1cnc2c(c1)ccc1cccnc12.c1cnc2c(c1)ccc1cccnc12 [Nd(PMS)3(Phen)m]    ⊚
O=P(c1ccccc1)(c1ccccc1)c1ccccc1.O=P(c1ccccc1)(c1ccccc1)c1ccccc1.O=P(c1ccccc1)(c1ccccc1)c1ccccc1.O=P(c1ccccc1)(c1ccccc1)c1ccccc1.O=P(c1ccccc1)(c1ccccc1)c1ccccc1.O=P(c1ccccc1)(c1ccccc1)c1ccccc1.O=P(c1ccccc1)(c1ccccc1)c1ccccc1.O=P(c1ccccc1)(c1ccccc1)c1ccccc1.O=S(=O)([N-]S(=O)(=O)C(F)(F)F)C(F)(F)F.O=S(=O)([N-]S(=O)(=O)C(F)(F)F)C(F)(F)F.O=S(=O)([N-]S(=O)(=O)C(F)(F)F)C(F)(F)F.[Tb+3] [Tb(PMS)3(TPPO)8]    ⊚

###

# Run Description: Miscibility with solvents, visual evaluation at 5 wt %
# Type: physicochemical
# Design: key: ⊚: dissolves at room temperature; ◯: dissolves when heated for 5 minutes at 40° C.; Δ: dissolves under heating, but cooling precipitates crystals; X: does not dissolve
# Settings: complex added at 5 wt %
Value Type: Miscibility, Toluene

O=P(c1ccccc1)(c1ccccc1)c1ccccc1.O=P(c1ccccc1)(c1ccccc1)c1ccccc1.O=P(c1ccccc1)(c1ccccc1)c1ccccc1.O=P(c1ccccc1)(c1ccccc1)c1ccccc1.O=P(c1ccccc1)(c1ccccc1)c1ccccc1.O=P(c1ccccc1)(c1ccccc1)c1ccccc1.O=P(c1ccccc1)(c1ccccc1)c1ccccc1.O=P(c1ccccc1)(c1ccccc1)c1ccccc1.O=S(=O)([N-]S(=O)(=O)C(F)(F)F)C(F)(F)F.O=S(=O)([N-]S(=O)(=O)C(F)(F)F)C(F)(F)F.O=S(=O)([N-]S(=O)(=O)C(F)(F)F)C(F)(F)F.[Eu+3]    ◯
O=S(=O)([N-]S(=O)(=O)C(F)(F)F)C(F)(F)F.O=S(=O)([N-]S(=O)(=O)C(F)(F)F)C(F)(F)F.O=S(=O)([N-]S(=O)(=O)C(F)(F)F)C(F)(F)F.[Nd+3] [Nd(PMS)3, reference compound]    X
O=S(=O)([N-]S(=O)(=O)C(F)(F)F)C(F)(F)F.O=S(=O)([N-]S(=O)(=O)C(F)(F)F)C(F)(F)F.O=S(=O)([N-]S(=O)(=O)C(F)(F)F)C(F)(F)F.O=S(c1ccccc1)c1ccccc1.O=S(c1ccccc1)c1ccccc1.O=S(c1ccccc1)c1ccccc1.O=S(c1ccccc1)c1ccccc1.O=S(c1ccccc1)c1ccccc1.O=S(c1ccccc1)c1ccccc1.O=S(c1ccccc1)c1ccccc1.O=S(c1ccccc1)c1ccccc1.[Eu+3]    ◯

###

# Run Description: Number of moles of bound water per mole of complex (TG-DTA)
# Assay type: physicochemical
# Settings: after drying in vacuo at 140° C.
# Description: The number of moles of bound water per mole of complex was measured using a TG-DTA 2000 from MAC Science. A 20 g quantity of Eu(PMS)3 was added to 100 mL of isopropanol, then 43 g ([…] the molar amount of the Eu(PMS)3) of triphenylphosphine oxide (hereinafter referred to as TPPO) was added, and the system was refluxed for 3 hours, and then gradually cooled. The resulting white powder was filtered off. […]
Below is a list of entries, each paired with its recorded Number of moles of bound water per mole of complex value.
Give a plain numeric answer without units written out.

Consider the reported Number of moles of bound water per mole of complex for these compounds:
O=P(c1ccccc1)(c1ccccc1)c1ccccc1.O=P(c1ccccc1)(c1ccccc1)c1ccccc1.O=P(c1ccccc1)(c1ccccc1)c1ccccc1.O=P(c1ccccc1)(c1ccccc1)c1ccccc1.O=P(c1ccccc1)(c1ccccc1)c1ccccc1.O=P(c1ccccc1)(c1ccccc1)c1ccccc1.O=P(c1ccccc1)(c1ccccc1)c1ccccc1.O=P(c1ccccc1)(c1ccccc1)c1ccccc1.O=S(=O)([N-]S(=O)(=O)C(F)(F)F)C(F)(F)F.O=S(=O)([N-]S(=O)(=O)C(F)(F)F)C(F)(F)F.O=S(=O)([N-]S(=O)(=O)C(F)(F)F)C(F)(F)F.[Nd+3]    0.24
O=P(c1ccccc1)(c1ccccc1)c1ccccc1.O=P(c1ccccc1)(c1ccccc1)c1ccccc1.O=P(c1ccccc1)(c1ccccc1)c1ccccc1.O=P(c1ccccc1)(c1ccccc1)c1ccccc1.O=P(c1ccccc1)(c1ccccc1)c1ccccc1.O=P(c1ccccc1)(c1ccccc1)c1ccccc1.O=P(c1ccccc1)(c1ccccc1)c1ccccc1.O=P(c1ccccc1)(c1ccccc1)c1ccccc1.O=S(=O)([N-]S(=O)(=O)C(F)(F)F)C(F)(F)F.O=S(=O)([N-]S(=O)(=O)C(F)(F)F)C(F)(F)F.O=S(=O)([N-]S(=O)(=O)C(F)(F)F)C(F)(F)F.[Yb+3]    0.27
O=P(c1ccccc1)(c1ccccc1)c1ccccc1.O=P(c1ccccc1)(c1ccccc1)c1ccccc1.O=P(c1ccccc1)(c1ccccc1)c1ccccc1.O=P(c1ccccc1)(c1ccccc1)c1ccccc1.O=P(c1ccccc1)(c1ccccc1)c1ccccc1.O=P(c1ccccc1)(c1ccccc1)c1ccccc1.O=P(c1ccccc1)(c1ccccc1)c1ccccc1.O=P(c1ccccc1)(c1ccccc1)c1ccccc1.O=S(=O)([N-]S(=O)(=O)C(F)(F)F)C(F)(F)F.O=S(=O)([N-]S(=O)(=O)C(F)(F)F)C(F)(F)F.O=S(=O)([N-]S(=O)(=O)C(F)(F)F)C(F)(F)F.[Eu+3]    0.18

# next compound below
Input: Answer with reported Number of moles of bound water per mole of complex of `O=P(c1ccccc1)(c1ccccc1)c1ccccc1.O=P(c1ccccc1)(c1ccccc1)c1ccccc1.O=P(c1ccccc1)(c1ccccc1)c1ccccc1.O=P(c1ccccc1)(c1ccccc1)c1ccccc1.O=P(c1ccccc1)(c1ccccc1)c1ccccc1.O=P(c1ccccc1)(c1ccccc1)c1ccccc1.O=P(c1ccccc1)(c1ccccc1)c1ccccc1.O=P(c1ccccc1)(c1ccccc1)c1ccccc1.O=S(=O)([N-]S(=O)(=O)C(F)(F)F)C(F)(F)F.O=S(=O)([N-]S(=O)(=O)C(F)(F)F)C(F)(F)F.O=S(=O)([N-]S(=O)(=O)C(F)(F)F)C(F)(F)F.[Tb+3]`
Output: 0.08

###

# Run Description: Miscibility with solvents, visual evaluation at 5 wt %
# Format: physicochemical
# Parameters: key: ⊚: dissolves at room temperature; ◯: dissolves when heated for 5 minutes at 40° C.; Δ: dissolves under heating, but cooling precipitates crystals; X: does not dissolve
# Settings: complex added at 5 wt %
Value Type: Miscibility, Acetone

O=S(=O)([N-]S(=O)(=O)C(F)(F)F)C(F)(F)F.O=S(=O)([N-]S(=O)(=O)C(F)(F)F)C(F)(F)F.O=S(=O)([N-]S(=O)(=O)C(F)(F)F)C(F)(F)F.[Eu+3].c1cnc2c(c1)ccc1cccnc12.c1cnc2c(c1)ccc1cccnc12.c1cnc2c(c1)ccc1cccnc12.c1cnc2c(c1)ccc1cccnc12 [Eu(PMS)3(Phen)m]    ⊚
O=P(c1ccccc1)(c1ccccc1)c1ccccc1.O=P(c1ccccc1)(c1ccccc1)c1ccccc1.O=P(c1ccccc1)(c1ccccc1)c1ccccc1.O=P(c1ccccc1)(c1ccccc1)c1ccccc1.O=P(c1ccccc1)(c1ccccc1)c1ccccc1.O=P(c1ccccc1)(c1ccccc1)c1ccccc1.O=P(c1ccccc1)(c1ccccc1)c1ccccc1.O=P(c1ccccc1)(c1ccccc1)c1ccccc1.O=S(=O)([N-]S(=O)(=O)C(F)(F)F)C(F)(F)F.O=S(=O)([N-]S(=O)(=O)C(F)(F)F)C(F)(F)F.O=S(=O)([N-]S(=O)(=O)C(F)(F)F)C(F)(F)F.[Eu+3] [Eu(PMS)3(TPPO)8]    ⊚
O=S(=O)([N-]S(=O)(=O)C(F)(F)F)C(F)(F)F.O=S(=O)([N-]S(=O)(=O)C(F)(F)F)C(F)(F)F.O=S(=O)([N-]S(=O)(=O)C(F)(F)F)C(F)(F)F.[Nd+3] [Nd(PMS)3, reference compound]    ⊚

###

# Run Description: Miscibility with solvents, visual evaluation at 5 wt %
# Type: physicochemical
# Design: key: ⊚: dissolves at room temperature; ◯: dissolves when heated for 5 minutes at 40° C.; Δ: dissolves under heating, but cooling precipitates crystals; X: does not dissolve
# Settings: complex added at 5 wt %
Value Type: Miscibility, Chloroform

O=P(c1ccccc1)(c1ccccc1)c1ccccc1.O=P(c1ccccc1)(c1ccccc1)c1ccccc1.O=P(c1ccccc1)(c1ccccc1)c1ccccc1.O=P(c1ccccc1)(c1ccccc1)c1ccccc1.O=P(c1ccccc1)(c1ccccc1)c1ccccc1.O=P(c1ccccc1)(c1ccccc1)c1ccccc1.O=P(c1ccccc1)(c1ccccc1)c1ccccc1.O=P(c1ccccc1)(c1ccccc1)c1ccccc1.O=S(=O)([N-]S(=O)(=O)C(F)(F)F)C(F)(F)F.O=S(=O)([N-]S(=O)(=O)C(F)(F)F)C(F)(F)F.O=S(=O)([N-]S(=O)(=O)C(F)(F)F)C(F)(F)F.[Yb+3]    ⊚
O=P(c1ccccc1)(c1ccccc1)c1ccccc1.O=P(c1ccccc1)(c1ccccc1)c1ccccc1.O=P(c1ccccc1)(c1ccccc1)c1ccccc1.O=P(c1ccccc1)(c1ccccc1)c1ccccc1.O=P(c1ccccc1)(c1ccccc1)c1ccccc1.O=P(c1ccccc1)(c1ccccc1)c1ccccc1.O=P(c1ccccc1)(c1ccccc1)c1ccccc1.O=P(c1ccccc1)(c1ccccc1)c1ccccc1.O=S(=O)([N-]S(=O)(=O)C(F)(F)F)C(F)(F)F.O=S(=O)([N-]S(=O)(=O)C(F)(F)F)C(F)(F)F.O=S(=O)([N-]S(=O)(=O)C(F)(F)F)C(F)(F)F.[Tb+3]    ⊚
